Test system: nude mice, LOX melanoma ip, survival T/C
Test: NCI In Vivo Anticancer Drug Screen. Data for tumor model Human Amelanotic Melanoma (LOX) (intraperitoneal) in NU/NU BALB/C (nude) mice
Details: endpoint: median survival time; dose: 400.0 mg/kg/injection; schedule: Q04DX003 (ip); vehicle: saline with Tween-80
Toxic doses and inconclusive results are not listed. The calls were made as follows: active = survival T/C of 150% or more; inactive = T/C below 125% in these data.
The reply should name one outcome from yes (active), no (inactive)

What outcome does the record of this test show for CC(=O)/C(=C\c1ccc(/C=C(\C(C)=O)C(=O)CCN(C)C)cc1)C(=O)CCN(C)C ?
no

What outcome does the record of this test show for NC(=O)c1[nH]cnc1O ?
no

What outcome does the record of this test show for Cc1ccc2c(c1)n([O-])c1cc(Cl)ccc1[n+]2=O ?
no

What outcome does the record of this test show for Nc1ccc2ccc(N)cc2c1 ?
no

What outcome does the record of this test show for NC(=S)c1ncn(C2OC(COC=O)C(OC=O)C2OC=O)c1NC=O (configuration not stated) ?
yes

What outcome does the record of this test show for O=C(NNC(=O)c1cccc(C(=O)NNC(=O)c2ccc(Cl)c(Cl)c2)n1)c1ccc(Cl)c(Cl)c1 ?
no

What outcome does the record of this test show for BrC[P+](CBr)(CBr)CBr ?
no
